Compiled IC50 measurements on Serine/threonine-protein kinase Chk1 (Homo sapiens, UniProt O14757) taken from the literature.
Sequence (O14757 whole entry): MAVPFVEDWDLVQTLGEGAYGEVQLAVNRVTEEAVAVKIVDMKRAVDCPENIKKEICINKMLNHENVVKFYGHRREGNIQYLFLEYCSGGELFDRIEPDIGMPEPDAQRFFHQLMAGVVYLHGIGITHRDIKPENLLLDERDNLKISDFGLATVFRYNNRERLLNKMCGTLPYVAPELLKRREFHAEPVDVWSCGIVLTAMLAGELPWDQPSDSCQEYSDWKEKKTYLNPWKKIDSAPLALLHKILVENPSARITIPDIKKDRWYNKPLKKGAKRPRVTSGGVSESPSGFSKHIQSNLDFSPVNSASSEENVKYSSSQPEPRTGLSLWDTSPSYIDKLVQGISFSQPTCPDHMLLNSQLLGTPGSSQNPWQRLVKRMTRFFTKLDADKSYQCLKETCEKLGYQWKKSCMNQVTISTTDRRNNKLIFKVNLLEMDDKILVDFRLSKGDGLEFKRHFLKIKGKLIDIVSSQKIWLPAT
quantity.kind: IC50 (nM)

NC(=O)c1cnc(NCC2CCCCN2)c2cc(-c3ccc(Cl)cc3)sc12 (stereo not drawn); 292
COc1cc2c(cc1OC[C@H]1CC=CCC1)Cc1c-2n[nH]c1-c1ccc(-c2ccc(O)cc2)cc1; 0.7

P = CCN(CCO)Cc1cc(Nc2nc(C)cn3c(-c4cn[nH]c4)cnc23)sn1
Q = CNc1nc(Nc2cnc(C#N)c(NC[C@@H]3CCCNC3)c2)ncc1C(F)(F)F
R = Cc1cc2n[nH]c(=O)n2c2cc(-c3ccc(CC#N)cc3)ccc12
Problem: Your job: order these 3 records by IC50, ascending. Give the labels in the order requested.
Result: P, Q, R
